Test system: MDA-MB-231
Test: Growth inhibition of human MDA-MB-231 cells at 10 uM after 48 hrs by SRB assay
Type: functional
Settings: MDA-MB-231, 48 h, read-out: GI
property name: inhibition of growth at 10 µM

Q. Which inhibition of growth at 10 µM value is on record for Cc1ccc(C(=O)Nc2ccc(Cl)cc2C(=O)Nc2ccccn2)cc1 ?
A. < 10%

Q. Could you do the same for Cc1ccc(-c2nc3ccc(Cl)cc3c(=O)n2NC(=O)CN)cc1 , please?
A. < 10%

Q. Could you do the same for Cc1ccc(C(=O)Nc2ccc(Cl)cc2C(=O)NCc2ccccc2)cc1 , please?
A. < 10%
